These entries and their values trace back to ChEMBL document CHEMBL3301361.

- protocol_text: physchem
- test_context: octan-1-ol/water, pH 7.4, LogD7.4
Response key: Satisfied means logD >= 2; Not satisfied means logD < 2.

Q: Identify whether the reported logD of the following compound is 2 or greater: `CCCc1c(OCc2ccc(C(=O)O)c(Br)c2)ccc(C(C)=O)c1O`
Ans: Satisfied

Q: logD >= 2 for `NC(=O)c1c(OCc2c(F)cc(Br)cc2F)nsc1NC(=O)NCCCCN1CCCC1` ?
Ans: Satisfied

Q: In plain terms: is recorded logD at least 2 for CC(C(=O)O)c1ccc2oc(-c3ccc(Cl)cc3)nc2c1 (configuration not stated) ?
Ans: Not satisfied

Q: Could you tell me if the measured logD of `Brc1cnc(NCc2ccccc2)nc1Nc1cc(C2CC2)n[nH]1` reaches 2 or more?
Ans: Satisfied

Q: Could you tell me if the measured logD of `CN[C@@H](C)C(=O)N[C@H](C(=O)N[C@H]1CCCN(C(=O)c2ccccc2)C1)C1CCCCC1` reaches 2 or more?
Ans: Not satisfied

Q: Decide: logD of `Cc1ccc(CO)cc1N(C)c1ccnc(Nc2cc(OC3CCOCC3)cc(N3CCOCC3)c2)n1` >= 2?
Ans: Satisfied

* * *

- protocol_text: in vitro
- test_context: human, liver microsomes
metric_name: microsomal CLint (µL/min/mg)
Output spec: scalar in µL/min/mg, unitless text.

smiles_text: CC(C)C(=O)Nc1nc(-c2ccccn2)cc2ccccc12
endpoint_value: 105
--
smiles_text: Cc1cc(Nc2cncc(N[C@@H](C)c3ncc(F)cn3)n2)n[nH]1
endpoint_value: 15.8

Q: Identify microsomal CLint associated with the molecule `Cc1ccccc1NC(=O)CCS(=O)(=O)c1ccc(Br)s1`
Ans: 46.8

Q: Assign microsomal CLint to the following record: `COc1cccc2sc(NC(=O)c3ccccc3)nc12`
Ans: 74

* * *

Catalogue of hepatocyte CLint readings, one per entry.
- protocol_text: in vitro
- test_context: hepatocytes
Kindly provide the numeric value in µL/min/1e6 cells only, without the unit symbol.

The examples below pair each entry with its known result.
compound: OCc1cc(C(O)CNCCCCCCOCCCCc2ccccc2)ccc1O (stereo not drawn) [SALMETEROL]
endpoint_value: 85
//
compound: Cc1ccc(S(=O)(=O)Nc2c(C(=O)NC(C)C(C)(C)C)c(C)nn2-c2ccccc2)cc1 (stereo not drawn)
endpoint_value: 7

Q: Fill in reported hepatocyte CLint for this entry: `O=C(CSc1ccccc1)N1CCN(C(=O)c2ccco2)CC1`
Ans: 64.6

Q: Note down hepatocyte CLint recorded for `Cc1cc(Nc2nc(N[C@@H](C)c3ccc(F)cn3)c(C#N)cc2Cl)n[nH]1`
Ans: 6.17

* * *

- protocol_text: in vitro
- test_context: human, plasma, PPB
metric_name: fraction unbound at 5 h

smiles_text: Cc1cc([C@H](O)[C@](C)(OCc2ccc(-c3ccccc3)cc2)C(=O)NO)no1
fraction unbound at 5 h: 0.0328
//
smiles_text: CN1CCN(C(=O)c2cc(Cc3n[nH]c(=O)c4ccccc34)ccc2F)CC1
fraction unbound at 5 h: 0.289
//
smiles_text: CC(C)NC(=O)c1ccc2c(Nc3ccc(Cl)cc3)nc(N3CCOCC3)nc2c1
fraction unbound at 5 h: 0.0051
//
smiles_text: CCS(=O)(=O)c1ccc(-c2cc(Cl)ccc2OCC(=O)O)c(F)c1
fraction unbound at 5 h: 0.0488
//
smiles_text: Cc1cn([C@H]2CCCN(S(=O)(=O)c3ccc(O)c(Oc4cccc(Br)c4)c3)C2)c(=O)[nH]c1=O
fraction unbound at 5 h: 0.0139

Next, consider the following molecule.
Q: Supply measured fraction unbound at 5 h of `CC(C)(F)C[C@H](N[C@@H](c1ccc(-c2ccc(S(C)(=O)=O)cc2)cc1)C(F)(F)F)C(=O)NC1(C#N)CC1` in your reply.
Ans: 0.0606

* * *

- protocol_text: physchem
- test_context: octan-1-ol/water, pH 7.4, LogD7.4
metric_name: logD
Keep the answer to the number alone.

Study these solved cases before continuing.
compound: CCOC(=O)Cc1csc(NS(=O)(=O)c2ccc(Cl)cc2)n1
logD: 1.32
//
compound: CCCc1c(O)c(O)c(C(=O)O)c2cc(Cc3ccccc3)c(C)cc12
logD: 2.6
//
compound: Cc1ncc(-c2ccnc(Nc3ccc(C(=O)N(C)C)cc3)n2)n1C(C)C
logD: 2.45
//
compound: COc1cc2ncnc(Nc3ccc(F)c(Cl)c3)c2cc1NC(=O)/C=C/CN1CCCCC1 [DACOMITINIB ANHYDROUS]
logD: 4.1
//
compound: O=S(=O)(Nc1ccc2[nH]c(-c3ccc(Br)o3)nc2c1)c1ccccc1
logD: 4.38
//
compound: Cc1cc(Oc2ccnc(Nc3ccc(N4CCOCC4)cc3)c2)c(-c2ccccn2)nc1C
logD: 2.59
//
compound: CCOC(=O)c1ccc(COC2CN(c3ccc(C)nn3)C2)cc1
logD: 2.5
//
compound: O=C1O[C@@H](Cn2nncc2F)CN1c1ccc(C2=CCS(=O)(=O)CC2)c(F)c1
logD: 3.54

Q: Provide one value: measured logD of `O=C([C@@H]1CCCN1)N1CCN(c2nc(NCc3ccc(Cl)cc3Cl)c3cccnc3n2)CC1`
Ans: 2.41

Q: Supply recorded logD for `CCn1c2ccccc2c2cc(NC(=O)CCc3ccncc3)ccc21` here.
Ans: 3.75

* * *

- protocol_text: in vitro
- test_context: human, hepatocytes
Define the label as 1 (yes) when hepatocyte CLint is strictly less than 9 µL/min/1e6 cells and as 0 (no) in all remaining cases.

Example entries begin here.
compound: CCC(=O)N[C@H]1CC[C@@H](C(=O)N(C)c2ccc(-c3nc4ccccc4o3)cc2)C1 [BI 99179]
category_label: 1 (yes)
//
compound: Cc1ccc2c(c1)c(Sc1ccc(S(C)(=O)=O)cc1)c(C)n2CC(=O)O
category_label: 1 (yes)
//
compound: COc1cccc2c1c(NS(=O)(=O)c1ccc(Cl)s1)nn2Cc1cccc(CNC(=O)[C@@H]2COCCN2)c1
category_label: 0 (no)
//
compound: CCc1cccc2c3c([nH]c12)C(CC)(CC(=O)O)OCC3 (centres undefined) [ETODOLAC]
category_label: 0 (no)
//
compound: Cc1ccc(C)c(OCCCC(C)(C)C(=O)O)c1 [GEMFIBROZIL]
category_label: 0 (no)

Q: Hello, I'm reviewing records and need to know if hepatocyte CLint of `O=C(O)c1ccc(-n2nc(C(F)(F)F)cc2-c2ccc(C(F)(F)F)cc2)cc1` is below 9 µL/min/1e6 cells. Could you check?
Ans: 0 (no)

Q: Does O=C(NCc1ccc(OC(F)(F)F)cc1)C1c2ccccc2C(=O)N1CC1CC(F)(F)C1 (centres undefined) have hepatocyte CLint strictly under 9 µL/min/1e6 cells?
Ans: 0 (no)

Q: Input `NC(=O)c1ccn2c(-c3ccccc3)c(-c3ccc(C4(N)CCC4)cc3)nc2c1` ; condition: hepatocyte CLint strictly below 9 µL/min/1e6 cells. Does it hold?
Ans: 1 (yes)

Q: Is it true that hepatocyte CLint reported for `O=c1[nH]c2ccccc2n1C1CCN(Cc2ccc(-c3nc4ccccc4cc3-c3ccccc3)cc2)CC1` is less than 9 µL/min/1e6 cells?
Ans: 1 (yes)

Q: Item `O=C(O)CC[C@@H](Cc1ccc(OCc2ccccc2)cc1)NC(=O)CCCCCCc1ccccc1` : hepatocyte CLint beneath 9 µL/min/1e6 cells, strictly?
Ans: 0 (no)

Q: Is the reported hepatocyte CLint for CO[C@H]1CC[C@]2(CC1)Cc1ccc(OCC(C)C)cc1C21N=C(C)C(N)=N1 (some centres undefined) strictly below 9 µL/min/1e6 cells?
Ans: 1 (yes)

Q: Find out if reported hepatocyte CLint for `O=C(O)CCc1ccc(OCc2cccc(Br)c2)cc1` is less than 9 µL/min/1e6 cells
Ans: 0 (no)

Q: Just wondering, is hepatocyte CLint of CC#C[C@]1(O)CC[C@H]2[C@@H]3CCC4=CC(=O)CCC4=C3[C@@H](c3ccc(N(C)C)cc3)C[C@@]21C [MIFEPRISTONE] below 9 µL/min/1e6 cells?
Ans: 0 (no)

Q: In the record for `CC(C)(CO)Nc1nc(SCc2cccc(F)c2F)nc2nc(N)sc12` , is hepatocyte CLint less than 9 µL/min/1e6 cells?
Ans: 1 (yes)

Q: For this compound, is hepatocyte CLint lower than 9 µL/min/1e6 cells? `CC[C@H](CO)Nc1nc(SCc2cccc(F)c2F)nc2nc(N)sc12`
Ans: 1 (yes)

Q: # strict comparison: is reported hepatocyte CLint < 9 µL/min/1e6 cells? input = `C=CCOc1cc(-c2cccc3c(=O)cc(N4CCOCC4)oc23)ccc1NC(=O)CN1CCOCC1`
Ans: 0 (no)

Q: hey, is hepatocyte CLint for `NC1(c2ccc(-c3ncc4cnccc4c3-c3ccccc3)cc2)CCC1` lower than 9 µL/min/1e6 cells or not?
Ans: 0 (no)

Q: Is hepatocyte CLint of `CCN(C(=O)c1cnn(-c2ccccc2)c1NS(=O)(=O)c1ccc(-c2cnco2)cc1)C1CCCCC1` strictly below 9 µL/min/1e6 cells?
Ans: 0 (no)
